The measurements presented in this section are drawn from patent US20130131322A1.

TARGET_UNDER_TEST: T1, transmembrane TGF-α (human TGF-α positions 1 to 160) expressed on 293T cells (human, UniProt P01135 24-160)
T1 construct: also called TGF-α/293T; TGFα/293T
T1 sequence: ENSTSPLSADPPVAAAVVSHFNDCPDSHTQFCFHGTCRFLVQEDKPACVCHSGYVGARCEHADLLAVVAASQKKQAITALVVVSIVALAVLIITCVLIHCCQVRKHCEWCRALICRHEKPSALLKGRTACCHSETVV
ASSAY_NAME: flow cytometry, culture supernatant on transmembrane TGF-α/293T
QUANTITY: binding result

Worked cases, answers included:
humanized chimeric anti-TGF-α antibody of MBL259-3 (antibody, human IgG1, V domains shown, tested as 293T culture supernatant; also called recombinant antibody MBL259-3) VH: VQLQQSGAELVRPGASVKLSCTASDFNIKDDYMHWMKQRPEQGLEWIGRIDPANGNTKYAPKFQDKATMTADTSSNTAYLQFSSLTSEDTAVYYCATSWGFPYWGQGTLVTVSA VL: DIVMTQAAPSVPVTPGESVSISCRSSKSLLHRNGNTYLYWFLQRPGQSPQLLIYRMSNLASGVPDRFSGSGSGTAFTLRISRVEAEDVGVYYCLQHLEYPYTFGSGTKLEIK : binds
humanized chimeric anti-TGF-α antibody of MBL184-6 (antibody, human IgG1, V domains shown, tested as 293T culture supernatant; also called recombinant antibody MBL184-6) VH: EVQLQQSGAELVRPGASVKLSCTVSGFNIKDDYMHWVKQRPEQGLEWIGRIDPANGHTKYAPKFQDKATITADTSSNTAYLQFSSLTSEDTAVYYCTRMGLRRGYWGQGTTLTVSS VL: IQMTQSSSSLSVSLGDRVTITCKASEHINSWLAWYQQKPGNAPRLLISGATNLKTGVPSRFSGSASGKDYTLNITSLQTEDVATYYCQQYWGTPWTFGGGTKLEIK : binds
humanized chimeric anti-TGF-α antibody of MBL352-34 (antibody, human IgG1, V domains shown, tested as 293T culture supernatant; also called recombinant antibody MBL352-34) VH: VQLQQSGAELVRPGASVKLSCTASGFNIKDDYMHWVKQRPEQGLEWIGRIDPANGHTKYAPKFQDKATITADTSSNTAYLQFSSLTSEDTAVYYCTRMGLRRGYWGQGTTLTVSS VL: IQMTQSSSSLSVSLGDRVTITCKASEHINSWLAWYQQKPGNAPRLLISGATNLKTGVPSRFSGSASGKDYTLSITSLQTEDVATYYCQQYWGTPWTFGGGTKLEIK : binds
humanized chimeric anti-TGF-α antibody of MBL018-1 (antibody, human IgG1, V domains shown, tested as 293T culture supernatant; also called recombinant antibody MBL018-1) VH: EVQLQQSGTVLTRPGASVKMSCKASGYTFTNFWIHWVKQRPGQGLDWIGAIYPGNTNTDYNQKFQGKAKLTAVSSASTAYMELSSLTNEDSAVYYCTRGGAMDYWGQGTSVTVSS VL: IVMTQTPKLLPVSAGDRVTMTCKASQSVDNSVAWYQQKPGQSPKLLIFYASNHYTGVPDRFTASGSGTDFTFTISSVQVEDLAVYFCQQHFSSPRTFGGGTKLEIR : binds

Task: Which binding result is reported for this binder? humanized chimeric anti-TGF-α antibody of MBL144-1 (antibody, human IgG1, V domains shown, tested as 293T culture supernatant; also called recombinant antibody MBL144-1) VH: VQLQESGPGLAKPSQTLSLTCSVTGYSITSDYWNWIRKFPGNKLEYMGYISYSGSTYYNPSLKSRISITRDTSKNQYYLQLNSVTTEDTATYYCARSYDGICFDNWGQGTTLTVSS VL: DILMTQSPATLSVTPGETVSLSCRASQNTYKNLHWYQQKSHGTPKLLIKYASAPISGIPSRFTGSGSGTDYTLSINSVKPEDEGIYYCLQGYSMPWTFGGGTKLEIK
Result: binds
